Exercise: for every item that follows, state its recorded IC50.
target: human αVβ5 (Homo sapiens, UniProt P06756+P18084)
Sequence (P06756 31-992 limits assumed): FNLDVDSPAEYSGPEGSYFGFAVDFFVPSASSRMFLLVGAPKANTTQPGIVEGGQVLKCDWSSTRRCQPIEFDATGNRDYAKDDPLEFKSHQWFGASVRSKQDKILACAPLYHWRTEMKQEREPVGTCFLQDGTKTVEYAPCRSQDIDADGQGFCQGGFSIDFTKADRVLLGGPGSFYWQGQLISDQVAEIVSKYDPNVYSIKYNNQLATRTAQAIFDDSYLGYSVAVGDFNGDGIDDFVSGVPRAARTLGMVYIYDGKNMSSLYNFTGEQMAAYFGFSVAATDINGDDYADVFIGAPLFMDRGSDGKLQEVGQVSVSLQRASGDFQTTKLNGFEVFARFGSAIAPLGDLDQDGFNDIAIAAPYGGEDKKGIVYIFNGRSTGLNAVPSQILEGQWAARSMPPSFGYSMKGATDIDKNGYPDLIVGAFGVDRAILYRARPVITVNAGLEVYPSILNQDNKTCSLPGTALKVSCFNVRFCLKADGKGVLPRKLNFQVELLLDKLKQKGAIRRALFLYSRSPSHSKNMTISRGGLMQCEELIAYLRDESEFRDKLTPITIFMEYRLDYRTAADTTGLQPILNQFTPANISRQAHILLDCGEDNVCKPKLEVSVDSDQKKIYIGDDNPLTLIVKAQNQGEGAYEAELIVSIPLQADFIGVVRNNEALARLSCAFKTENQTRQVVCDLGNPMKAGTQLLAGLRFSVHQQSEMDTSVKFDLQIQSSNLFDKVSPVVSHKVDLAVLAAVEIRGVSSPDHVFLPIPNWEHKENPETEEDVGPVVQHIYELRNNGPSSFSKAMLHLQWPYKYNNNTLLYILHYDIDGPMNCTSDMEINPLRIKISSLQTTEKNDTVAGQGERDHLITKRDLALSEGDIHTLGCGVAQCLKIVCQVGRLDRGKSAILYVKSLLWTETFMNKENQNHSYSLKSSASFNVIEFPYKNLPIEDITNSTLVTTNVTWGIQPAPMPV
Sequence (P18084 24-719 limits assumed): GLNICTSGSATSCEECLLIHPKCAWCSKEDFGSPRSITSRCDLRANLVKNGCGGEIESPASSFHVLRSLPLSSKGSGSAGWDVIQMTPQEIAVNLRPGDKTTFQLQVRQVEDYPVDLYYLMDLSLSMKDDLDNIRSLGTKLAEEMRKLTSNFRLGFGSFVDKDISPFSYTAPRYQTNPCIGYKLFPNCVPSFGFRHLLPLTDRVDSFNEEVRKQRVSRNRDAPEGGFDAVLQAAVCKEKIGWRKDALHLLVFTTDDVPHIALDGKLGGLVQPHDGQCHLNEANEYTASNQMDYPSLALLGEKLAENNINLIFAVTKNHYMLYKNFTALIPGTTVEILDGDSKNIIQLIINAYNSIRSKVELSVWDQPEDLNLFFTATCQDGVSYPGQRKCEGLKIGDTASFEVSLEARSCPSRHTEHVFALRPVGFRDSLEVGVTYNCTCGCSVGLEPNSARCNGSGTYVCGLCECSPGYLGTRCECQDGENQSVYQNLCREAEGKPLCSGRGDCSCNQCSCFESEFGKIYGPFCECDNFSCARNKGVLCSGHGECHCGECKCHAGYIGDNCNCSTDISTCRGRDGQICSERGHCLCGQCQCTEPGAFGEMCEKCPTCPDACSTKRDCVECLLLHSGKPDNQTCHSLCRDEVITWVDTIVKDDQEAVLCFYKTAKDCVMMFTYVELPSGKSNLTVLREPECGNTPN
method notes: human αVβ5 HTRF binding assay
State the answer as a number, implicitly in nM.

Asked: Lookup: IC50 / human αVβ5 (Homo sapiens, UniProt P06756+P18084) / Cc1cc(C)c(S(=O)(=O)N[C@@H](CNC(=O)c2ccn(CCc3ccc4c(n3)NCCC4)n2)C(=O)O)c(C)c1
Given back: 0.4

Asked: Notebook entry, human αVβ5 (Homo sapiens, UniProt P06756+P18084) assay: IC50 of Cc1cc(C)c(S(=O)(=O)N[C@H](CNC(=O)c2cn(CCc3ccc4c(n3)NCCC4)cn2)C(=O)O)c(C)c1 = ?
Given back: 0.5

Asked: Query IC50 on human αVβ5 (Homo sapiens, UniProt P06756+P18084) for O=C(N[C@@H](CNC(=O)c1cnn(CCc2ccc3c(n2)NCCC3)c1)C(=O)O)OCc1ccccc1
Given back: 0.2

Asked: Item: Cc1cc(C)c(S(=O)(=O)N[C@@H](CNC(=O)c2cn(CCc3ccc4c(n3)NCCC4)nn2)C(=O)O)c(C)c1 Test system: human αVβ5 (Homo sapiens, UniProt P06756+P18084) Read-out: IC50 Value: ?
Given back: 1.1

Asked: For the record CCCCOC(=O)N[C@@H](CNC(=O)c1cnn(CCc2ccc3c(n2)NCCC3)c1)C(=O)O , what value of IC50 is listed for human αVβ5 (Homo sapiens, UniProt P06756+P18084)?
Given back: 0.2

Asked: Field: IC50 (human αVβ5 (Homo sapiens, UniProt P06756+P18084)). Entry: Cc1cc(C)c(S(=O)(=O)N[C@@H](CNC(=O)c2ncn(CCc3ccc4c(n3)NCCC4)n2)C(=O)O)c(C)c1
Given back: 902

Asked: // map Cc1cc(C)c(S(=O)(=O)N[C@@H](CNC(=O)c2ccn(CCc3ccc4c(n3)NCCC4)c2)C(=O)O)c(C)c1 to recorded IC50 (system: human αVβ5 (Homo sapiens, UniProt P06756+P18084))
Given back: 0.2
